Reported pIC50 values for a set of compounds
# Test system: L02
# assayMethodText: Antiproliferative activity against human HL7702 cells after 48 hrs by MTT assay
# Type: ADME, cell-based
# conditionParameters: Homo sapiens, L02, 48 h
pIC50: −log10 of the molar value.
attributeMeasured: pIC50

compound: O=C(O)C1CCC2(CC1)OOC1(OO2)C2CC3CC(C2)CC1C3 (centres undefined)
reading: < 4.00
//
compound: O=C(Nc1ccc2nccc(Nc3cccc(Cl)c3)c2c1)C1CCC2(CC1)OCC1(OO2)C2CC3CC(C2)CC1C3 (centres undefined)
reading: < 4.00
//
compound: O=C(Nc1ccc2ncnc(Nc3cccc(Cl)c3)c2c1)C1CCCCC1
reading: < 4.30
//
compound: O=C(Nc1ccc2ncnc(Nc3cccc(Cl)c3)c2c1)C1CCC2(CC1)OCC1(OO2)C2CC3CC(C2)CC1C3 (stereo in doubt; 7)
reading: < 4.00

###

# Tested on: A-431
# assayMethodText: Antiproliferative activity against EGFR over-expressing human A431 cells after 48 hrs by MTT assay
# Format: functional, cell-based
# conditionParameters: Homo sapiens, A-431, 48 h
pIC50: −log10 of the molar value.

compound: O=C(O)C1CCC2(CC1)OOC1(OO2)C2CC3CC(C2)CC1C3 (stereo not drawn)
pIC50: < 4.00
--
compound: O=C(Nc1ccc2nccc(Nc3cccc(Cl)c3)c2c1)C1CCC2(CC1)OCC1(OO2)C2CC3CC(C2)CC1C3 (stereo not drawn)
pIC50: < 4.30
--
compound: O=C(Nc1ccc2ncnc(Nc3cccc(Cl)c3)c2c1)C1CCCCC1
pIC50: < 4.30
